# test system: T1, recombinant human BCMA, in house material (human, UniProt Q02223 4-53, limits assumed)
# T1 construct: also called Human in house BCMA; In house human BCMA
# T1 sequence (Q02223 4-53 limits assumed): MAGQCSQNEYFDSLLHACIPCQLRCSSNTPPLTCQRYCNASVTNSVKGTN
# assay summary: ProteOn SPR run 1, antibody captured on Protein A, 25C
pKd: −log10 of the molar value.
Entries and their pKd
readout kind: pKd

# binder, readout kind, measured
rows = [
    ("CA8 humanised J5M0 (antibody, human IgG1, kappa, V domains shown, Humanised CA8, heavy chain J5 with light chain M0, human IgG1 kappa; also called CA8 J5M0) VH: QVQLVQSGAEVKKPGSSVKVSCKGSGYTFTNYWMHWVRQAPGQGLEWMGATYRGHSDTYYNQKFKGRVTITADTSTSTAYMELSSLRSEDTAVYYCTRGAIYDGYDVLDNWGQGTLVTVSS VL: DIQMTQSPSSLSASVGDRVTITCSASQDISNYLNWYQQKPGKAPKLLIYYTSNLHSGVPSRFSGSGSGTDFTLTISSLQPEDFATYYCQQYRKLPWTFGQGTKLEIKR", "pKd", 10.06),
    ("CA8 humanised J3M2 (antibody, human IgG1, kappa, V domains shown, Humanised CA8, heavy chain J3 with light chain M2, human IgG1 kappa; also called CA8 J3M2) VH: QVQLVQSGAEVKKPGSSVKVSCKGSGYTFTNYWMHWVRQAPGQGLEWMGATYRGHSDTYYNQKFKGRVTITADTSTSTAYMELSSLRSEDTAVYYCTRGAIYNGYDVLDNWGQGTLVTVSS VL: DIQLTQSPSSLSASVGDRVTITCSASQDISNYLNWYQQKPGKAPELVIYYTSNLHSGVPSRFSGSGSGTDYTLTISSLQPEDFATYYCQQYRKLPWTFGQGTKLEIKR", "pKd", 9.44),
    ("CA8 humanised J0M0 (antibody, human IgG1, kappa, V domains shown, Humanised CA8, heavy chain J0 with light chain M0, human IgG1 kappa; also called CA8 J0M0) VH: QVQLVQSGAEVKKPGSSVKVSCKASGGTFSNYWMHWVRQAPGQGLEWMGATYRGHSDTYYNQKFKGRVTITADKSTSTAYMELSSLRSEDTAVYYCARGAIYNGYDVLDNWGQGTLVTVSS VL: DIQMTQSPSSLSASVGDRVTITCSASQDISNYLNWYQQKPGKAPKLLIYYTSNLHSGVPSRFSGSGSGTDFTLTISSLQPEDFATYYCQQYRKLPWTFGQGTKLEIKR", "pKd", 9.36),
]
